The measured values listed here are drawn from patent US8410107B2.

system under test: human CB1 receptor (Homo sapiens)
Construct: expressed in transfected cells; host or cells: human embryonic kidney (HEK) cells, Semliki Forest Virus system, membrane preparations
Sequence (P21554 whole entry): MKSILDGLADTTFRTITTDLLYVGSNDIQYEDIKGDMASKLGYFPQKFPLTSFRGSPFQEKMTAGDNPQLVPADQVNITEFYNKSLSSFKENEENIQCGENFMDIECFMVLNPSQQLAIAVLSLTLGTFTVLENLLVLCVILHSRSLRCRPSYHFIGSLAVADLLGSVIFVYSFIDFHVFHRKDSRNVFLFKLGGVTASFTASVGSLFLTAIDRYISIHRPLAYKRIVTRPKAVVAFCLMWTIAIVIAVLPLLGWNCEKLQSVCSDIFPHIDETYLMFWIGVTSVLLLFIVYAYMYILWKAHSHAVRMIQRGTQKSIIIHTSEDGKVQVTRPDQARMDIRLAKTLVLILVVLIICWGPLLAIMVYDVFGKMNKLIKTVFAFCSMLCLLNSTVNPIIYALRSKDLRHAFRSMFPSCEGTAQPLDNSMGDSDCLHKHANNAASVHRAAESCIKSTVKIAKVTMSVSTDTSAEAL
assay explanation: CB1 receptor affinity ([3H]-CP-55,940 displacement, HEK cell membranes)
Type: binding
details: displacement of radioligand [3H]-CP-55,940
Listed here are compounds together with their documented inhibition at 10 µM.

compound	system under test	inhibition at 10 µM / %
Cc1ccc(C(=O)Nc2cnc(OCC(F)(F)F)c(-c3ccc(Cl)cc3)c2)o1 [Example 68]	human CB1 receptor (Homo sapiens)	26
CN1CCOc2cc(C(=O)Nc3cnc(OCC(F)(F)F)c(-c4ccc(Cl)cc4)c3)cnc21 [Example 72]	human CB1 receptor (Homo sapiens)	25
O=C(Nc1cnc(OC2CCC2)c(-c2ccc(Cl)cc2)c1)c1cccnc1 [Example 79]	human CB1 receptor (Homo sapiens)	29
O=C(Nc1cnc(OCC2CC2)c(-c2ccc(Cl)cc2)c1)c1ccccc1 [Example 8]	human CB1 receptor (Homo sapiens)	52
O=C(Nc1cnc(OCC(F)(F)F)c(-c2ccc(Cl)c(F)c2)c1)c1cccnc1 [Example 44]	human CB1 receptor (Homo sapiens)	15
O=C(Nc1cnc(OCC(F)(F)F)c(-c2ccccc2)c1)c1cccnc1 [Example 74]	human CB1 receptor (Homo sapiens)	17
O=C(Nc1cnc(OCC(F)(F)F)c(-c2ccc(F)c(Cl)c2)c1)c1cccnc1 [Example 45]	human CB1 receptor (Homo sapiens)	11
CNC(=O)c1cncc(C(=O)Nc2cnc(OCC(F)(F)F)c(-c3ccc(Cl)cc3)c2)c1 [Example 87]	human CB1 receptor (Homo sapiens)	19
Cc1cnccc1C(=O)Nc1cnc(OCC(F)(F)F)c(-c2ccc(Cl)cc2)c1 [Example 18]	human CB1 receptor (Homo sapiens)	37
Cc1cc(C(=O)Nc2cnc(OCC(F)(F)F)c(-c3ccc(Cl)cc3)c2)ccn1 [Example 25]	human CB1 receptor (Homo sapiens)	25
O=C(Nc1cnc(OCC(F)(F)F)c(-c2ccc(Cl)cc2)c1)c1ccc(O)cn1 [Example 40]	human CB1 receptor (Homo sapiens)	19
O=C(Nc1cnc(OCC(F)(F)F)c(-c2ccc(Cl)cc2)c1)c1ccoc1 [Example 67]	human CB1 receptor (Homo sapiens)	33
Cc1cccnc1C(=O)Nc1cnc(OCC(F)(F)F)c(-c2ccc(Cl)cc2)c1 [Example 36]	human CB1 receptor (Homo sapiens)	18
O=C(Nc1cnc(OCC(F)(F)F)c(-c2ccc(Cl)cc2F)c1)c1cccnn1 [Example 64]	human CB1 receptor (Homo sapiens)	9
O=C(Nc1cnc(OC2CCC2)c(-c2ccc(Cl)cc2)c1)c1cnccn1 [Example 78]	human CB1 receptor (Homo sapiens)	25
O=C(Nc1cnc(OCC(F)(F)F)c(-c2ccc(Cl)cc2)c1)c1cccnn1 [Example 17]	human CB1 receptor (Homo sapiens)	16
Cc1cc(C(=O)Nc2cnc(OCC(F)(F)F)c(-c3ccc(Cl)cc3)c2)n(C)n1 [Example 13]	human CB1 receptor (Homo sapiens)	16
